ASSAYED_TARGET: TTK (MV4-11^HiBiT-TTK cells) (Homo sapiens)
Construct: expressed in transfected cells; host or cells: MV4-11, lentiviral transduction (pRRL-PGK-HiBiT entry vector)
Sequence (P33981 1-857): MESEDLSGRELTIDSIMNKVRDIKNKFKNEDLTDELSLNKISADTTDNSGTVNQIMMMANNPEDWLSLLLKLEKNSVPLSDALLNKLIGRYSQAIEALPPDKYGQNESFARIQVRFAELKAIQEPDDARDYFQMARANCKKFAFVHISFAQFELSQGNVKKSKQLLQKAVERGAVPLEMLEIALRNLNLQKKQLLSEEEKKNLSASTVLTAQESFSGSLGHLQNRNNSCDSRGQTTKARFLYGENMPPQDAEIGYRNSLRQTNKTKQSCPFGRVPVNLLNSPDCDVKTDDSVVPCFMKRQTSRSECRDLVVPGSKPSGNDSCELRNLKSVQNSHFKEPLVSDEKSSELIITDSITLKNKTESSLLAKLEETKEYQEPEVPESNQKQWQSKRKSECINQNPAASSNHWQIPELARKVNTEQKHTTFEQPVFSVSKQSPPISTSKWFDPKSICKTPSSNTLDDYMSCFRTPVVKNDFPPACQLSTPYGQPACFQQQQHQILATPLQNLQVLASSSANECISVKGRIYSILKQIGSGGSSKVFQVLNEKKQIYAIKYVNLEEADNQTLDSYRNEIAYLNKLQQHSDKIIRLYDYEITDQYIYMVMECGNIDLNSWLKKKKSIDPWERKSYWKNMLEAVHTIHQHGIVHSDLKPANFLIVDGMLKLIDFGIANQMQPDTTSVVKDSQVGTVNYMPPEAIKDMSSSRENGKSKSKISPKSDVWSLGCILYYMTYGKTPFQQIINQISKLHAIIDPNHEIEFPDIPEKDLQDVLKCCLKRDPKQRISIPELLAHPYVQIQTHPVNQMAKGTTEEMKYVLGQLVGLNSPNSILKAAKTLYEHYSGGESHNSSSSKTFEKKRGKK
EXPERIMENT_NOTES: HiBiT assay, TTK degradation
Format: cell-based
SETUP_CONDITIONS: 6 h treatment, MV4-11^HiBiT-TTK cells
PROPERTY_LABEL: Dmax (maximal degradation) TTK (%)

1. COc1cc(N2CCC(OCC(=O)N3CCN(c4cccc5c4C(=O)N(C4CCC(=O)NC4=O)C5=O)CC3)CC2)ccc1Nc1nc(Nc2ccccc2S(=O)(=O)C(C)C)c2nc[nH]c2n1 (centres unmarked)    23.00
2. Cc1ncsc1-c1ccc(CNC(=O)[C@@H]2C[C@@H](O)CN2C(=O)[C@@H](NC(=O)CCC(=O)NCCNC(=O)CCC(=O)N2CCN(c3ccc(Nc4nc(NC5CCCCC5)c5nc[nH]c5n4)cc3)CC2)C(C)(C)C)cc1    28.40
3. CC(C)S(=O)(=O)c1ccccc1Nc1nc(Nc2ccc(N3CCN(C(=O)CNC(=O)CCCC(=O)Nc4cccc5c4C(=O)N(C4CCC(=O)N(C)C4=O)C5=O)CC3)cc2)nc2[nH]cnc12 (centres unmarked)    16.95
4. CN1C(=O)CCC(N2C(=O)c3cccc(NC(=O)CCCC(=O)NCC(=O)N4CCN(c5ccc(Nc6nc(NC7CCCCC7)c7nc[nH]c7n6)cc5)CC4)c3C2=O)C1=O (centres unmarked)    32.55
5. COc1cc(N2CCN(C(=O)CNC(=O)CCCC(=O)Nc3cccc4c3C(=O)N(C3CCC(=O)NC3=O)C4=O)CC2)ccc1Nc1nc(Nc2ccccc2S(=O)(=O)C(C)C)c2nc[nH]c2n1 (centres unmarked)    41.90
6. CC(C)S(=O)(=O)c1ccccc1Nc1nc(Nc2ccc(N3CCN(CCCCC(=O)Nc4cccc5c4C(=O)N(C4CCC(=O)NC4=O)C5=O)CC3)cc2)nc2[nH]cnc12 (centres unmarked)    59.05
7. Cc1ncsc1-c1ccc(CNC(=O)[C@@H]2C[C@@H](O)CN2C(=O)[C@@H](NC(=O)COCCOCC(=O)N2CCN(c3ccc(Nc4nc(Nc5ccccc5S(=O)(=O)C(C)C)c5nc[nH]c5n4)cc3)CC2)C(C)(C)C)cc1    47.40
8. CC(C)S(=O)(=O)c1ccccc1Nc1nc(Nc2ccc(N3CCN(CC(=O)Nc4cccc5c4C(=O)N(C4CCC(=O)NC4=O)C5=O)CC3)cc2)nc2[nH]cnc12 (centres unmarked)    28.90
